Molecular target: caspase-3 (Homo sapiens)
Construct: made in house
Sequence (P42574 29-175 limits assumed): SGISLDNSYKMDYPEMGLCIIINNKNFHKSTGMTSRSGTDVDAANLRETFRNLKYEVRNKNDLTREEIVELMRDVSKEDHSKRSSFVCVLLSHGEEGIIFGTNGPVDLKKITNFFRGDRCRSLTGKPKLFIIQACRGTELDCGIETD
Sequence (P42574 176-277 limits assumed): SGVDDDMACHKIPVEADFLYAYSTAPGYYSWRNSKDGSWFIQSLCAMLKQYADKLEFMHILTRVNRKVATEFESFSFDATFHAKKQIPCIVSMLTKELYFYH
Experiment: Screening on caspases inhibiting activity (recombinant enzyme, fluorogenic AMC substrate)
Format: biochemical
Settings: Irreversible Inhibitors
Method: In the present experiment, recombinant caspases were purified from a transformed bacterium after human caspase genes were cloned into the expression vector pET, and then used in the experiment (Thornberry, N.A. et .al. Nature, 1992, 356, 768. Thombeny, N.A. Methods in Enzymology, 1994, 615.). Enzymatic activity was measured by a known procedure (Walker N.P.C. et al., Cell 1994, 78, 343). […]
// values below are reported Kobs/[I] for caspase-3
Write the answer as a number in M⁻¹ s⁻¹, unit excluded.

Below are worked cases with known answers.
CCCCCC1(C(=O)N[C@@H](CC(=O)O)C(=O)COC(=O)c2c(Cl)cccc2Cl)CC([C@@H](NC(=O)CCC(=O)O)C(C)C)=NO1 (stereo partly shown) : 80100
COCC1(C(=O)N[C@@H](CC(=O)O)C(=O)COC(=O)c2c(Cl)cccc2Cl)CC([C@@H](NC(=O)CCC(=O)O)C(C)C)=NO1 (stereo partly shown) : 27400
CC(C)[C@H](NC(=O)CCC(=O)O)C1=NOC(Cc2ccccc2)(C(=O)N[C@@H](CC(=O)O)C(=O)COC(=O)c2c(Cl)cccc2Cl)C1 (stereo partly shown) : 28000

Challenge: For caspase-3 (Homo sapiens), give the measured Kobs/[I] for caspase-3 of the entry CC(C)[C@H](NC(=O)CCC(=O)O)C1=NOC(C)(C(=O)N[C@@H](CC(=O)O)C(=O)COC(=O)c2c(Cl)cccc2Cl)C1 (stereo partly shown)
Response given: 40900

Value source: patent EP1212309B1
